# Agonist activity (EC50, M) per record follows
- Assay system: T1, human GIPR (human), P48546
- T1 chain: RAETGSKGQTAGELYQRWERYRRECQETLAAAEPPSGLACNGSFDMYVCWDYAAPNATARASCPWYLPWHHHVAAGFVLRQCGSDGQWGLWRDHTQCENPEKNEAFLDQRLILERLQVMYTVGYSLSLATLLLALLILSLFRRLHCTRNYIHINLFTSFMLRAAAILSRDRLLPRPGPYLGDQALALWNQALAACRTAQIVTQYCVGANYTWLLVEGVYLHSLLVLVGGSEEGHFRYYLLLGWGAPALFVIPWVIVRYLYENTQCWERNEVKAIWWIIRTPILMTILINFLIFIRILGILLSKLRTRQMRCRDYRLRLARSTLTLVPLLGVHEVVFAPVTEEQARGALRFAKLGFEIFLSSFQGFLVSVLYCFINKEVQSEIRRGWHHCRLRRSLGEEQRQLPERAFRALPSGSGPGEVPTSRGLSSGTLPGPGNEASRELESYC
Non-standard residues stand in square brackets, D forms with d. Groups on a side chain read outwards from the residue. Primed or numbered codes have the meaning given here. No end group written: not given here. *: point of attachment. αMeF = C[C@](N)(Cc1ccccc1)C(=O)O; Lauroyl = CCCCCCCCCCCC(=O)*; Aib = CC(C)(N)C(=O)O

- Binder: "Y[Aib]EGTVVSLYSI[Aib]LDKQAQ[Aib]EFVKWLLAQKK([PEG(2)-Pal]) (ends and bridges not checked) [Compound 160]"
  Agonist activity (EC50, M): "9.5e-11"
- Binder: "Y[Aib]EGTFISDYSK([PEG(2)-Lauroyl])ALDRIAQQD[αMeF]VNWLLAQRPSSGAPPPSR (ends and bridges not checked) [Compound 195]"
  Agonist activity (EC50, M): "4.8e-12"
